# target.entity: human MC4R (Homo sapiens, UniProt P32245)
# Construct: expressed in transfected cells; host or cells: HEK293/MC4R/CRE-GFP
# Sequence (P32245 whole entry): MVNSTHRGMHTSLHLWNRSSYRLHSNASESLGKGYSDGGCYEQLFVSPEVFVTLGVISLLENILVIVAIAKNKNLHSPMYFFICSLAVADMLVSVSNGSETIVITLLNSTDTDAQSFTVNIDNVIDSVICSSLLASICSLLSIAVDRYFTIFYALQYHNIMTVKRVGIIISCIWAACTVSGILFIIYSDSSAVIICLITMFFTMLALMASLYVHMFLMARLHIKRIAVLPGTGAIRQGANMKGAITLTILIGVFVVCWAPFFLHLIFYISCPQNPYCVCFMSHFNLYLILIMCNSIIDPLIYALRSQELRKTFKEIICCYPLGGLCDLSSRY
# test.details: cAMP accumulation assay (HTRF), antagonist activity at MC4R
# Assay type: cell-based
# experimental.context: dose-response fit, MC4R
Where a name gives a salt, the structure may show the parent alone. Positions of bridges follow the written chain, without caps; N, C: chain ends. Non-standard residues stand in square brackets, D forms with d. Residues, ends and D or L forms follow the SMILES beside them. d2Nal = N[C@H](Cc1ccc2ccccc2c1)C(=O)O; Hyp = O=C(O)[C@@H]1C[C@@H](O)CN1; Nle = CCCC[C@H](N)C(=O)O
Param label: returns 1 when Top (%) < 3000%, returns 0 otherwise, including exact equality.

| compound | group.label |
| --- | --- |
| CCCC[C@H](NC(C)=O)C(=O)N[C@H]1CC(=O)NCCCC[C@@H](C(=O)N[C@@H](C(=O)N2CCC[C@@H]2C(N)=O)C(C)C)NC(=O)[C@H](Cc2c[nH]c3ccccc23)NC(=O)[C@H](CCCNC(=N)N)NC(=O)[C@@H](Cc2ccc3ccccc3c2)NC(=O)[C@H](Cc2c[nH]cn2)NC(=O)[C@@H]2CCCN2C1=O [Peptide D1] (Ac-[Nle]DPH[d2Nal]RWK[dV][dP]-NH2; lactam 2-8) | 1 |
| CCCC[C@H](NC(C)=O)C(=O)N[C@H]1CC(=O)NCCCC[C@@H](C(=O)N2CCC[C@@H]2C(=O)N[C@@H](C(N)=O)C(C)C)NC(=O)[C@H](Cc2c[nH]c3ccccc23)NC(=O)[C@H](CCCNC(=N)N)NC(=O)[C@@H](Cc2ccc3ccccc3c2)NC(=O)[C@@H]2CCCN2C1=O [TCMCB02] (Ac-[Nle]DP[d2Nal]RWK[dP][dV]-NH2; lactam 2-7) | 1 |
| CCCC[C@H](NC(C)=O)C(=O)N[C@H]1CC(=O)NCCCC[C@@H](C(=O)N[C@@H](C(=O)N2CCC[C@@H]2C(N)=O)C(C)C)NC(=O)[C@H](Cc2c[nH]c3ccccc23)NC(=O)[C@H](CCCNC(=N)N)NC(=O)[C@@H](Cc2ccc3ccccc3c2)NC(=O)[C@@H]2C[C@@H](O)CN2C1=O [Peptide D3] (Ac-[Nle]D[Hyp][d2Nal]RWK[dV][dP]-NH2; lactam 2-7) | 1 |
| CCCC[C@H](NC(C)=O)C(=O)N[C@H]1CC(=O)NCCCC[C@@H](C(=O)N[C@@H](C(=O)N2CCC[C@@H]2C(N)=O)C(C)C)NC(=O)[C@@H]2CCCN2C(=O)[C@H](Cc2c[nH]c3ccccc23)NC(=O)[C@H](CCCNC(=N)N)NC(=O)[C@@H](Cc2ccc3ccccc3c2)NC(=O)[C@@H]2C[C@@H](O)CN2C1=O [Peptide D4] (Ac-[Nle]D[Hyp][d2Nal]RWPK[dV][dP]-NH2; lactam 2-8) | 0 |
| CCCC[C@H](NC(C)=O)C(=O)N[C@H]1CC(=O)NCCCC[C@@H](C(=O)N2CCC[C@@H]2C(=O)N[C@@H](C(N)=O)C(C)C)NC(=O)[C@H](Cc2c[nH]c3ccccc23)NC(=O)[C@H](CCCNC(=N)N)NC(=O)[C@@H](Cc2ccc3ccccc3c2)NC(=O)[C@H](Cc2c[nH]cn2)NC(=O)[C@@H]2CCCN2C1=O [Peptide D5] (Ac-[Nle]DPH[d2Nal]RWK[dP][dV]-NH2; lactam 2-8) | 1 |

I wonder whether CCCC[C@@H]1NC(=O)[C@@H](NC(C)=O)CSSC[C@@H](C(N)=O)NC(=O)CNC(=O)[C@H](Cc2c[nH]c3ccccc23)NC(=O)[C@H](CCCNC(=N)N)NC(=O)[C@@H](Cc2ccc3ccccc3c2)NC(=O)[C@H](Cc2c[nH]cn2)NC(=O)[C@H](CCCNC(=N)N)NC1=O [HS024(TFA), reference compound] (Ac-C[Nle]RH[d2Nal]RWGC-NH2; disulfide 1-9 (inferred); N-terminus and C-terminus assumed) has Top (%) below 3000%. Can you tell? 1

Origin of values: patent US20260098072A1
